# Test system: Influenza type A (strain A/PR/8/34, ATCC VR-95)
# assay_text: Influenza antiviral assay: inhibition of virus-induced cytopathic effects (CPE) in MDCK cells, XTT dye reduction
# Type: cell-based
# condition_label: Influenza A virus, H1N1 / PR/8, MDCK, 96 h, strain A/PR/8/34, MDCK cells, CPE inhibition at 4 days
For each entry below, report its EC50 value.

Record CC(C)N1CN(C23c4ccccc4CC2(C)Cc2ccccc23)n2ccc(=O)c(O)c2C1=O (centres unmarked) . Reported EC50: < 125 nM

Record CCOC12Cc3ccccc3C1(N1CN(C)C(=O)c3c(O)c(=O)ccn31)c1ccccc1C2 (centres unmarked) . Reported EC50: < 125 nM

Record O=C1c2c(O)c(=O)ccn2N(C23c4ccccc4CC2Cc2cc(F)c(F)cc23)CN1CCc1cccc(F)c1 (centres unmarked) . Reported EC50: 125 to 250 nM

Record CC(C)CN1C(=O)c2c(O)c(=O)ccn2N(C23c4ccccc4CC2Cc2c3ccc(F)c2F)C1C (centres unmarked) . Reported EC50: > 500 nM

Record CCN1CN(C23c4ccccc4CC2Cc2c3ccc(F)c2C)n2ccc(=O)c(O)c2C1=O (centres unmarked) . Reported EC50: < 125 nM

Record CN1CN(C23c4ccccc4CC2Cc2c3ccc(F)c2Cl)n2ccc(=O)c(O)c2C1=O (centres unmarked) . Reported EC50: < 125 nM

Record CCN1CN(C23c4cccc(C)c4CC2Cc2c(F)cccc23)n2ccc(=O)c(O)c2C1=O (centres unmarked) . Reported EC50: 125 to 250 nM

Record CCN1C(=O)c2c(O)c(=O)ccn2N(C23c4ccccc4CC2Cc2c(Cl)cccc23)C1C (centres unmarked) . Reported EC50: 125 to 250 nM

###

# Tested on: Influenza type A (strain A/PR/8/34, ATCC VR-95)
# assay_text: Influenza antiviral assay: inhibition of virus-induced cytopathic effects (CPE) in MDCK cells, XTT dye reduction
# Format: cell-based
# condition_label: Influenza A virus, H1N1 / PR/8, MDCK, 96 h, strain A/PR/8/34, MDCK cells, CPE inhibition at 4 days
pEC50: −log10 of the molar value.
For each entry below, report its pEC50 value.

Record O=C1c2c(O)c(=O)ccn2N(C23c4ccccc4CC2Cc2c3ccc(F)c2F)CN1CC1CCCCO1 (stereo not shown) . Reported pEC50: 6.30 to 6.43

Record O=C1c2c(O)c(=O)ccn2N(C23c4ccccc4CC2Cc2c(Cl)cccc23)CN1CC(F)F (stereo not shown) . Reported pEC50: > 6.90

Record CC(C)CN1C(=O)c2c(O)c(=O)ccn2N(C23c4ccccc4CC2Cc2c(F)cccc23)C1C (stereo not shown) . Reported pEC50: < 6.30

Record CN1CN(C23c4cc(F)c(F)cc4CC2Cc2cc(F)c(F)cc23)n2ccc(=O)c(O)c2C1=O (stereo not shown) . Reported pEC50: 6.30 to 6.43

Record CCN1CN(C23c4ccccc4CC2(C)Cc2c3ccc(F)c2F)n2ccc(=O)c(O)c2C1=O (stereo not shown) . Reported pEC50: > 6.90

Record CN1C(=O)c2c(O)c(=O)ccn2N(C23c4cccc(F)c4CC2Cc2c(F)cccc23)C1CO (stereo not shown) . Reported pEC50: > 6.90

Record CN1CN(C23c4cccc(F)c4CC2(C)Cc2c(F)cccc23)n2ccc(=O)c(O)c2C1=O (stereo not shown) . Reported pEC50: > 6.90

Record CC1N(C2CCC2)C(=O)c2c(O)c(=O)ccn2N1C12c3ccccc3CC1Cc1c(F)cccc12 (stereo not shown) . Reported pEC50: 6.30 to 6.43

Record O=C1c2c(O)c(=O)ccn2N(C23c4ccccc4CC2Cc2c3ccc(F)c2F)CN1CCc1cccc(F)c1 (stereo not shown) . Reported pEC50: 6.60 to 6.90

Record CC(C)CN1CN(C23c4cccc(F)c4CC2Cc2c(F)cccc23)n2ccc(=O)c(O)c2C1=O (stereo not shown) . Reported pEC50: 6.43 to 6.60

Record O=C1c2c(O)c(=O)ccn2N(C23c4cccc(F)c4CC2Cc2c(F)cccc23)CN1CCc1ccccc1 (stereo not shown) . Reported pEC50: 6.60 to 6.90

Record O=C1c2c(O)c(=O)ccn2N(C23c4ccccc4CC2Cc2c3ccc(F)c2F)CN1CCCF (stereo not shown) . Reported pEC50: > 6.90

Record O=C1c2c(O)c(=O)ccn2N(C23c4ccccc4CC2Cc2c(Cl)cccc23)CN1CCF (stereo not shown) . Reported pEC50: 6.60 to 6.90

Record CC1N(CC2CC2)C(=O)c2c(O)c(=O)ccn2N1C12c3ccccc3CC1Cc1c2ccc(F)c1F (stereo not shown) . Reported pEC50: 6.43 to 6.60

Record COCCN1C(=O)c2c(O)c(=O)ccn2N(C23c4ccccc4CC2Cc2c(Cl)cccc23)C1C (stereo not shown) . Reported pEC50: 6.43 to 6.60

Record Cc1ccc2c(c1F)CC1Cc3ccccc3C21N1CN(C)C(=O)c2c(O)c(=O)ccn21 (stereo not shown) . Reported pEC50: 6.60 to 6.90

Record O=C1c2c(O)c(=O)ccn2N(C23c4ccccc4CC2Cc2c3ccc(F)c2F)CN1CC1CCCCC1 (stereo not shown) . Reported pEC50: < 6.30

Record O=C1c2c(O)c(=O)ccn2N(C23c4ccccc4CC2Cc2c(Cl)cccc23)CN1CC1CCC1 (stereo not shown) . Reported pEC50: 6.30 to 6.43

Record CN1CN(C23c4ccccc4CC2(C)Cc2c3ccc(F)c2F)n2ccc(=O)c(O)c2C1=O (stereo not shown) . Reported pEC50: > 6.90

Record O=C1c2c(O)c(=O)ccn2N(C23c4ccccc4CC2Cc2cc(F)c(F)cc23)CN1Cc1cccc(F)c1 (stereo not shown) . Reported pEC50: < 6.30

Record O=C1c2c(O)c(=O)ccn2N(C23c4cccc(F)c4CC2Cc2c(F)cccc23)CN1CC(F)F (stereo not shown) . Reported pEC50: > 6.90

Record CCN1CN(C23c4ccccc4CC2(CC)Cc2ccccc23)n2ccc(=O)c(O)c2C1=O (stereo not shown) . Reported pEC50: 6.60 to 6.90

Record O=C1c2c(O)c(=O)ccn2N(C23c4ccccc4CC2Cc2cc(F)c(F)cc23)CN1CCc1ccccc1 (stereo not shown) . Reported pEC50: 6.43 to 6.60

Record CCN1CN(C23c4ccccc4CC2Cc2c3ccc(C)c2F)n2ccc(=O)c(O)c2C1=O (stereo not shown) . Reported pEC50: 6.43 to 6.60

Record CCC1N(C)C(=O)c2c(O)c(=O)ccn2N1C12c3ccccc3CC1Cc1ccccc12 (stereo not shown) . Reported pEC50: > 6.90

Record CN1CN(C23C(=Cc4ccccc42)Cc2ccccc23)n2ccc(=O)c(O)c2C1=O (stereo not shown) . Reported pEC50: > 6.90

Record CCN1CN(C23c4ccccc4CC2Cc2ccc(F)cc23)n2ccc(=O)c(O)c2C1=O (stereo not shown) . Reported pEC50: > 6.90

Record CCOC12Cc3ccccc3C1(N1CN(CC)C(=O)c3c(O)c(=O)ccn31)c1ccccc1C2 (stereo not shown) . Reported pEC50: > 6.90

Record O=C1c2c(O)c(=O)ccn2N(C23c4ccccc4CC2Cc2ccccc23)CN1Cc1cccc(Cl)c1F (stereo not shown) . Reported pEC50: < 6.30

Record CN1CN(C23c4ccccc4CC2Cc2ccc(F)cc23)n2ccc(=O)c(O)c2C1=O (stereo not shown) . Reported pEC50: > 6.90

Record CC1N(C)C(=O)c2c(O)c(=O)ccn2N1C12c3ccccc3CC1Cc1c(F)cccc12 (stereo not shown) . Reported pEC50: > 6.90

meta.source: patent US12037333B2
